molecular target: T1, FcRn-p3 fusion protein (human, UniProt P55899 24-297; P61769 21-119); assay: phage ELISA pH6 (est.)
T1 construct: baculovirus expressed; coated on ELISA wells; not shown: amino terminal part of bacteriophage p3 protein and CVDE protein
T1 sequence (P55899 24-297, chain 1 of 2): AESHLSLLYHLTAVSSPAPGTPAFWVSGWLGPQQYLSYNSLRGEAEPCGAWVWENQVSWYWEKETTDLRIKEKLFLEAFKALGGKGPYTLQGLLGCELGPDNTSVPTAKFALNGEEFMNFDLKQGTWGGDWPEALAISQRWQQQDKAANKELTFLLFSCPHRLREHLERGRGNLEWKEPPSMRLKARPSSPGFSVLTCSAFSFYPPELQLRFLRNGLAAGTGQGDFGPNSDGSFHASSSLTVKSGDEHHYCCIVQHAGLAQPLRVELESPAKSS
T1 sequence (P61769 21-119, chain 2 of 2): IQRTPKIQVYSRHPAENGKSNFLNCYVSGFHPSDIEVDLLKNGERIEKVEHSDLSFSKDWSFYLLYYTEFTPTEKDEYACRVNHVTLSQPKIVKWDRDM
Reported Ratio/FWT values for the following binders.

[
  {
    "Binder": "T4A_43 (other, EU numbering) CPPCPAPELLGGPSVFLFPPKPKDTLMISRTPEVTCVVVDVSHEDPEVKFNWYVDGVEVHNAKTKPREEQYNSTYRVVSVLTVLHQDWLNGKEYKCKVSNKALPAPVEKTISKAKGQPREPQVYTLPPSRDELTKNQVSLTCLVRGFYPSDIVVEWESNGQPENNYKTTPPVLDSDGSFFLYSKLTVDKSRWQQGNVFSCSVMHEALHSHYTQKSLSLSPGK",
    "Ratio/FWT / fold": 6.3
  },
  {
    "Binder": "C7A_13 (other, EU numbering) CPPCPAPELLGGPSVLLFPPKPKDTLMISRTPEVTCVVEDVSHEDPEVKFNWYVDGVEVHNAKTKPREEQYNSTYRVVSVLTVLHQDWLNGKEYKCKVSNKALPAPIEKTISKAKGQPREPQVYTLPPSRDELTKNQVSLTCLVKGFYPSDIVVEWESNGQPENNYKTTPPVLDSDGSFFLYSKLTVDKSRWQQGTVFSCSVMHEALHYHYTQKSLSLSPGK",
    "Ratio/FWT / fold": 7.4
  }
]
